Listed sequences paired with reported target mRNA inhibition
Molecular target: MALAT1
Conditions: ASO, A431, 0.005 µM
After the bases stand the sugars from the 5' end (letter, count) and the backbone: PS all phosphorothioate, else s phosphorothioate and o phosphodiester by linkage. Methylation of C is not given here. k = constrained ethyl (cEt); d = 2'-deoxy (DNA)
Experimental Readout: target mRNA inhibition (%)

| Ordered Residues | Experimental Readout | Observed Measurement |
| --- | --- | --- |
| TATGGAACTTGAATGC (sugars k3 d10 k3, PS) | target mRNA inhibition | 24 |
| CCTGAAAAAGTCTTAG (sugars k3 d10 k3, PS) | target mRNA inhibition | 28 |
| GTCAATTTATAGACCC (sugars k3 d10 k3, PS) | target mRNA inhibition | 18 |
| GTGTTATGCCTGGTTA (sugars k3 d10 k3, PS) | target mRNA inhibition | 2 |
| GGATTCTAGACAGACC (sugars k3 d10 k3, PS) | target mRNA inhibition | 44 |
| CACGAACTGCTGCTTG (sugars k3 d10 k3, PS) | target mRNA inhibition | 55 |
| CTACATTTACAAAACG (sugars k3 d10 k3, PS) | target mRNA inhibition | 29 |
| ATTAAGAGCTGCTATA (sugars k3 d10 k3, PS) | target mRNA inhibition | -4 |
| CCAGGAGTGCCAACCA (sugars k3 d10 k3, PS) | target mRNA inhibition | 5 |
| CAGGACTTGGCAGTCT (sugars k3 d10 k3, PS) | target mRNA inhibition | 14 |
| AGTTACTTGCCAACTT (sugars k3 d10 k3, PS) | target mRNA inhibition | 7 |

Values compiled from the OligoGym collection.
